Species on record: Canis familiaris
PROTOCOL DESCRIPTION: Cardioselectivity expressed as change in blood pressure for 100% increase in right ventricular contractile force in dogs
Type: functional, Canis lupus familiaris
Rule: BP below -30 mmHg gives 1 (yes), anything at or above gives 0 (no).

>>> label("NCCc1ccc(O)c(O)c1 [DOPAMINE]")
"0 (no)"
>>> label("CC(Cc1ccc(O)c(O)c1)NC1CCc2c(ccc(O)c2O)C1 (stereo unspecified)")
"1 (yes)"
>>> label("CC(CCc1ccc(O)c(O)c1)NC1CCc2cc(O)c(O)cc2C1 (stereo unspecified)")
"0 (no)"
>>> label("CC(CCc1ccc(O)cc1)NC1CCc2cc(O)c(O)cc2C1 (stereo unspecified)")
"0 (no)"
>>> label("CC(CCc1ccc(O)cc1)NC1CCc2c(ccc(O)c2O)C1 (stereo unspecified)")
"1 (yes)"
>>> label("CC(C)NCC(O)c1ccc(O)c(O)c1 (stereo unspecified) [ISOPROTERENOL]")
"0 (no)"

Reference for the values: ChEMBL document CHEMBL1121893
